Please respond with reported pIC50 for every item in the list.
biological target: human ACC2 (Homo sapiens, UniProt O00763); construct: made in house; host or cells: insect cells (baculoviral expression system); assay: ACC2 assay, spectrophotometric 384 well assay (NADH-linked, coupled lactate dehydrogenase/pyruvate kinase); format: biochemical; conditions: ACC2 assay, hACC2 construct lacking 128 N-terminal amino acids, 25° C., 340 nm; read-out: IC50
Sequence (O00763 129-2458 limits assumed): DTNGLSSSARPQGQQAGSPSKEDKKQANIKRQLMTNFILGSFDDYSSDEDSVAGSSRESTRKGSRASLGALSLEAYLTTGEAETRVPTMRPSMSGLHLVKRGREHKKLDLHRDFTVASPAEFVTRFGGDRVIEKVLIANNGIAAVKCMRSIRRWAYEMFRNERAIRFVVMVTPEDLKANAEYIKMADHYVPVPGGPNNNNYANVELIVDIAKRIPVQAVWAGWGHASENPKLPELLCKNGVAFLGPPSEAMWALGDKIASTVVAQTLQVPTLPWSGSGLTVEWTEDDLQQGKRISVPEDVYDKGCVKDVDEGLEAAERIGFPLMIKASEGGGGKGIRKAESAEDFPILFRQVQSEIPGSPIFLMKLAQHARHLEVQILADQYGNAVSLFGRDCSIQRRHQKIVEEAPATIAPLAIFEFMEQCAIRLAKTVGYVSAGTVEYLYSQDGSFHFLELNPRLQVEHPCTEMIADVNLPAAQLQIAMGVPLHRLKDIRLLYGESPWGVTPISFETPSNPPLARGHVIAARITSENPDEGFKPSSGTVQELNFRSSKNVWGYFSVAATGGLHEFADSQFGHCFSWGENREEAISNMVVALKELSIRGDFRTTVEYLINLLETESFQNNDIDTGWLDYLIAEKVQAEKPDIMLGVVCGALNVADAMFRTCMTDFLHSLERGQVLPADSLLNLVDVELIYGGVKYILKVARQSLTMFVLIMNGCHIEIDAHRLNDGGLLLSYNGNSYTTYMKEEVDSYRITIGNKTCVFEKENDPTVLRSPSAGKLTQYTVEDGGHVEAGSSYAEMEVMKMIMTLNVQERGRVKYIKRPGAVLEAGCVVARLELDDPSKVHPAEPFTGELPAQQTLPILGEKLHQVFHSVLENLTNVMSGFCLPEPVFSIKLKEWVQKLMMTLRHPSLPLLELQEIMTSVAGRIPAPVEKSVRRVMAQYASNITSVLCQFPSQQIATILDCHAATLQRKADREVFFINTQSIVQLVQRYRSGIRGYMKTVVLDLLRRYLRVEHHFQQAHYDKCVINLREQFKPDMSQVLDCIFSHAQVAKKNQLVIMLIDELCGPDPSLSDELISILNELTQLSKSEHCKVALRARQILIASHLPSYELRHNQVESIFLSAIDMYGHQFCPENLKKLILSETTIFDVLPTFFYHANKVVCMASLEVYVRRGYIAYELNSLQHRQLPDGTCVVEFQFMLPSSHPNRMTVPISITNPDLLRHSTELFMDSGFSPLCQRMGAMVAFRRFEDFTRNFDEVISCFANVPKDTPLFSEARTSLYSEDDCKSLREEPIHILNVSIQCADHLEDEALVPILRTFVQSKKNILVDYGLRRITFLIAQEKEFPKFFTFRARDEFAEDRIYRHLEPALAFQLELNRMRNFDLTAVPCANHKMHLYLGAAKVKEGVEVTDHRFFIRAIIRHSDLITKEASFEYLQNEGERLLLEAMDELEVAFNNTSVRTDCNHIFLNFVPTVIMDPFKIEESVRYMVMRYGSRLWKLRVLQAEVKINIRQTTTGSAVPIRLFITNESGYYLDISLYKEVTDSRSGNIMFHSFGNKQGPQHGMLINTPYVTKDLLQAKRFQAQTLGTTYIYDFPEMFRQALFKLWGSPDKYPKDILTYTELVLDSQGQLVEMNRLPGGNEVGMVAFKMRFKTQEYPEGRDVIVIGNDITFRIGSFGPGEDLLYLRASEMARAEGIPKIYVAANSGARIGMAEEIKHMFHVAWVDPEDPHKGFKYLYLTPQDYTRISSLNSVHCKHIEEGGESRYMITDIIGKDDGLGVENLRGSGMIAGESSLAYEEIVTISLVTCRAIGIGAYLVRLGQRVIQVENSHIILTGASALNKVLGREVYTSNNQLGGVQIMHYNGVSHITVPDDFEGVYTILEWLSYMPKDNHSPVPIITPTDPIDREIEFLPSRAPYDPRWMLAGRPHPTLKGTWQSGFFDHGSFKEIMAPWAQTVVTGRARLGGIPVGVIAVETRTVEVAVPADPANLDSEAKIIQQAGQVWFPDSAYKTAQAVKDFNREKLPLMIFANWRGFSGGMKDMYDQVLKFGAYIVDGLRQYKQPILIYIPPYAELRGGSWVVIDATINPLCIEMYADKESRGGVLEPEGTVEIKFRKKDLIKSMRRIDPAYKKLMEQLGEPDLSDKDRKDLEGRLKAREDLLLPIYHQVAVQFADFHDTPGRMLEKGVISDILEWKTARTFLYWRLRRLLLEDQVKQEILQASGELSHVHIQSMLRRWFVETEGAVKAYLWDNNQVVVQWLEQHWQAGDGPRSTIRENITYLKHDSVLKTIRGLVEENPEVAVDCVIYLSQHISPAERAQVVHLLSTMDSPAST
Answers are plain numbers, as −log10 of the molar value.

// known answers, use as guide
- molecule: "CC(=O)N[C@@H](C)c1ccc(C2CCN(c3cccc(C(F)(F)F)c3)CC2)cc1"
  pIC50: 7.10
- molecule: "CC(=O)N[C@@H](C)c1ccc(C2CCN(c3ncc(-c4ccc(F)c(F)c4)cn3)CC2)cc1"
  pIC50: 7.15
- molecule: "C[C@H](NC(=O)C1CC1)c1ccc(C2CCN(c3nc(N4CCCC4)ncc3C#N)CC2)cc1"
  pIC50: 5.85

Give pIC50 for each of the items listed below.
1. CCOc1ccc(N2CCC(c3ccc([C@H](C)NC(C)=O)cc3)CC2)cc1OC
2. CC(=O)N[C@@H](C)c1ccc(C2CCN(c3ccnc(C(F)(F)F)n3)CC2)cc1
3. CCCNc1nccc(N2CCC(c3ccc([C@H](C)NC(C)=O)cc3)CC2)n1
4. COc1cc(OC2CCC2)ccc1N1CCC(c2ccc([C@H](C)NC(C)=O)cc2)CC1
5. CC(=O)N[C@@H](C)c1ccc(C2CCN(c3ncc(C(=O)NCCC4CCCN4C)cn3)CC2)cc1 (some centres unmarked)

Output:
1: 5.57; 2: 6.54; 3: 5.51; 4: 6.96; 5: 4.83

====

Please provide measured IC50 for the entries that follow.
biological target: human ACC2 (Homo sapiens, UniProt O00763); construct: made in house; host or cells: insect cells (baculoviral expression system); assay: ACC2 assay, spectrophotometric 384 well assay (NADH-linked, coupled lactate dehydrogenase/pyruvate kinase); format: biochemical; conditions: ACC2 assay, hACC2 construct lacking 128 N-terminal amino acids, 25° C., 340 nm; read-out: IC50
One number for each entry, in µM.

- compound: "CC(=O)N[C@@H](C)c1ccc(C2CCN(c3ncc(C(=O)NCCC(N)=O)cn3)CC2)cc1 [Example 18.82]"
  IC50, µM: 6.2

// for each compound below, give its IC50
1. CCCn1ccc(N2CCC(c3ccc([C@H](C)NC(C)=O)cc3)CC2)cc1=O [Example 3.9]
2. CC(=O)N[C@@H](C)c1ccc(C2CCN(c3ncc4nc(-c5ccc(C)s5)oc4n3)CC2)cc1 [Example 5.6]
3. CC(=O)N[C@@H](C)c1ccc(C2CCN(c3ncc([N+](=O)[O-])cn3)CC2)cc1 [Example 4.39]

Output:
13.3
0.06
1.9

====

molecular target: human ACC2 (Homo sapiens, UniProt O00763); construct: made in house; host or cells: insect cells (baculoviral expression system); test: ACC2 assay, spectrophotometric 384 well assay (NADH-linked, coupled lactate dehydrogenase/pyruvate kinase); assay type: biochemical; details: ACC2 assay, hACC2 construct lacking 128 N-terminal amino acids, 25° C., 340 nm; read-out: IC50
test readout: IC50 (nM)
Give bare numbers, in nM.

- compound: "CCC(NC(C)=O)c1ccc(C2CCN(c3ccc(OCC4CC4)cc3F)CC2)cc1 (stereo not shown)"
  unit symbol: "nM"
  readout value: 1900

For every item in the list below, what is its measured IC50?
1. CC(=O)N[C@@H](C)c1ccc(C2CCN(c3ncc(C(=O)N4Cc5cnn(C)c5C4)cn3)CC2)cc1
2. CC(=O)N[C@@H](C)c1ccc(C2CCN(c3cccc(OC4CCCOC4)c3)CC2)cc1 (stereo partly shown)
3. CCCOc1ccc(N2CCC(c3ccc([C@H](C)NC(=O)N(C)C)cc3)CC2)c(OC)c1

Output:
[16900, 1400, 180]

For each of the compounds below, state IC50.
1. Cc1cc(OC2CC2)ccc1N1CCC(c2ccc([C@H](C)NC(=O)C3CC3)cc2)CC1
2. CCOc1cc(N2CCC(c3ccc([C@H](C)NC(C)=O)cc3)CC2)ncn1

Output:
[600, 580]

====

biological target: human ACC2 (Homo sapiens, UniProt O00763); construct: made in house; host or cells: insect cells (baculoviral expression system); test: ACC2 assay, spectrophotometric 384 well assay (NADH-linked, coupled lactate dehydrogenase/pyruvate kinase); type: biochemical; details: ACC2 assay, hACC2 construct lacking 128 N-terminal amino acids, 25° C., 340 nm; read-out: IC50
test readout: pIC50
One number for each entry, as −log10 of the molar value.

Some solved entries appear below for comparison.
- molecule: "COCCOc1cc(N2CCC(c3ccc([C@H](C)NC(C)=O)cc3)CC2)ncn1"
  pIC50: 5.42
- molecule: "CC(=O)N[C@@H](C)c1ccc(C2CCN(c3ccc4oc(=O)[nH]c4c3)CC2)cc1"
  pIC50: 4.62

Hi team, please reply with pIC50 for each item in this list.
1. CC(=O)N[C@@H](C)c1ccc(C2CCN(c3ccnc(NCC4CC4)n3)CC2)cc1
2. CC(=O)N[C@@H](C)c1ccc(C2CCN(c3ccnc(OCCc4ccccc4)c3)CC2)cc1
3. CC(=O)N[C@@H](C)c1ccc(C2CCN(c3ccnc(N(C)C(C)C)n3)CC2)cc1
4. CCCC(C)Oc1ccc(N2CCC(c3ccc([C@H](C)NC(C)=O)cc3)CC2)cc1F (some centres unmarked)
5. CC(=O)NC(C)Cc1ccc(C2CCN(c3ccc4c(c3)OCCO4)CC2)cc1 (centres unmarked)

Output:
6.19
5.89
6.27
6.43
5.74

Input: Report pIC50 for CCCOc1ccc(N2CCC(c3ccc([C@H](C)NC(=O)C4CC4)cc3)CC2)c(C#N)c1 please.
Output: 6.96

====

target: human ACC2 (Homo sapiens, UniProt O00763); construct: made in house; host or cells: insect cells (baculoviral expression system); test: ACC2 assay, spectrophotometric 384 well assay (NADH-linked, coupled lactate dehydrogenase/pyruvate kinase); format: biochemical; conditions: ACC2 assay, hACC2 construct lacking 128 N-terminal amino acids, 25° C., 340 nm; read-out: IC50
test readout: pIC50
One number for each entry, as −log10 of the molar value.

- molecule: "CC(=O)N[C@@H](C)c1ccc(C2CCN(c3ncc(-c4cccc5[nH]ccc45)cn3)CC2)cc1 [Example 10.120]"
  pIC50: 6.13

I'm hoping you can list pIC50 for every molecule here, please.
1. CCC(NC(C)=O)c1ccc(C2CCN(c3ccnc(Oc4ccccc4)c3)CC2)cc1 (centres unmarked) [Example 15.19]
2. C[C@H](NC(=O)C1CC1)c1ccc(C2CCN(c3ncc(C4CC4)cn3)CC2)cc1 [Example 4.303]
3. COCc1nc(N2CCC(c3ccc([C@H](C)NC(C)=O)cc3)CC2)no1 [Example 26.4]
4. Cc1cccc(-c2cnc(N3CCC(c4ccc([C@H](C)NC(=O)N(C)C)cc4)CC3)nc2)c1 [Example 10.107]

Output:
5.41
4.81
5.04
6.96

====

I'd be grateful if you could share measured IC50 for these entries.
target: human ACC2 (Homo sapiens, UniProt O00763); construct: made in house; host or cells: insect cells (baculoviral expression system); assay: ACC2 assay, spectrophotometric 384 well assay (NADH-linked, coupled lactate dehydrogenase/pyruvate kinase); format: biochemical; conditions: ACC2 assay, hACC2 construct lacking 128 N-terminal amino acids, 25° C., 340 nm; read-out: IC50
Answers are plain numbers, in µM.

Worked set:
- compound: "CC(=O)N[C@@H](C)c1ccc(C2CCN(c3ccnc(OCC(C)(C)C)c3)CC2)cc1 [Example 19.5]"
  measurement target: "human ACC2 (Homo sapiens, UniProt O00763)"
  IC50, µM: 0.08
- compound: "CCOc1ccc(N2CCC(c3ccc([C@H](C)NC(=O)C4(C#N)CC4)cc3)CC2)cc1 [Example 6.20]"
  measurement target: "human ACC2 (Homo sapiens, UniProt O00763)"
  IC50, µM: 0.67
- compound: "CCOc1ccc(N2CCC(c3ccc([C@H](C)NC(=O)c4nccs4)cc3)CC2)cc1 [Example 6.33]"
  measurement target: "human ACC2 (Homo sapiens, UniProt O00763)"
  IC50, µM: 3.1

Lab note: each compound below needs its IC50 filled in.
1. COc1ccc(N2CCC(c3ccc([C@H](C)NC(C)=O)cc3)CC2)cc1Cl [Example 8.46]
2. CC(=O)N[C@@H](C)c1ccc(C2CCN(c3ccc(-c4ccc(C#N)s4)cn3)CC2)cc1 [Example 10.308]

Output:
1: 1; 2: 0.08

====

target: human ACC2 (Homo sapiens, UniProt O00763); construct: made in house; host or cells: insect cells (baculoviral expression system); experiment: ACC2 assay, spectrophotometric 384 well assay (NADH-linked, coupled lactate dehydrogenase/pyruvate kinase); assay type: biochemical; conditions: ACC2 assay, hACC2 construct lacking 128 N-terminal amino acids, 25° C., 340 nm; read-out: IC50
Exercise: state measured pIC50 for each of the molecules provided.
One number for each entry, as −log10 of the molar value.

Below are some molecules; for each one, tell me its pIC50.
1. CC(=O)N[C@@H](C)c1ccc(C2CCN(c3ccc(C(=O)C4CC4)cn3)CC2)cc1
2. CC(=O)N[C@@H](C)c1ccc(C2CCN(c3ccnc(OCC4CC4)n3)CC2)cc1
3. COc1ccc(N2CCC(c3ccc([C@H](C)NC(C)=O)cc3)CC2)c(C#N)c1
4. CC(=O)N[C@@H](C)c1ccc(C2CCN(c3ccc(OCC4CC4C)cc3)CC2)cc1 (stereo partly shown)

Output:
6.07
5.96
6.59
6.82
